Assign Diameter (nm) to each entry below.
Test: Diameter and PDI from DLS measurements of mRNA nanoparticles with lipid amines
Assay type: physicochemical
Conditions: CFTR mRNA nanoparticle with lipid amine
Where a name gives a salt, the structure may show the parent alone.
Dear colleague, please return just the value in nm, with no unit written.

Need Diameter (nm) of CC(C)CCC[C@@H](C)[C@H]1CC[C@H]2[C@@H]3CC=C4C[C@@H](SSCCC(=O)N(CCCCNCCC(C)(C)N)CCC(C)(C)N)CC[C@]4(C)[C@H]3CC[C@]12C.Cl.Cl.Cl [SA138] , thanks.
89.6

Given CC(C)CCC[C@@H](C)[C@H]1CC[C@H]2[C@@H]3CC=C4C[C@@H](OC(=O)N(CCCCNCC(C)CN)CC(C)CN)CC[C@]4(C)[C@H]3CC[C@]12C (stereo partly shown) [SA75, trihydrochloride] , state its recorded Diameter (nm).
86.9

Fill in: Diameter (nm) of CC[C@H](CC[C@@H](C)[C@H]1CC[C@H]2[C@@H]3CC=C4C[C@@H](OC(=O)N(CCCCCCCC(C)(C)N)CCC(C)(C)N)CC[C@]4(C)[C@H]3CC[C@]12C)C(C)C [SA153, dihydrochloride] is ___
69.3

# lookup: Diameter (nm) of CC(C)CCC[C@@H](C)[C@H]1CC[C@H]2[C@@H]3CC=C4C[C@@H](OC(=O)CN(CCCCCCCCN)C(=O)[C@@H](N)CCCCN)CC[C@]4(C)[C@H]3CC[C@]12C.Cl.Cl.Cl [SA130]
85.7
